# Lookup of reported half-life keyed by entry
Protocol Details: Half life in dog at 0.2 mg/kg dose in intravenous and 1 mg/kg of peroral
Type: ADME, organism-based, Canis lupus familiaris
Settings: in vivo
Unit min implied. Number only.

`COc1ccc([C@@H](CCCCCCc2ccc3c(n2)NCCC3)CC(=O)O)cn1` has a reported half-life of 570

Entry under test: `Cc1ncc([C@@H](CCCCCCc2ccc3c(n2)NCCC3)CC(=O)O)cn1` . Its half-life was 570

Entry under test: `COc1ncc([C@@H](CCCCCCc2ccc3c(n2)NCCC3)CC(=O)O)cn1` . Its half-life was 408

// field: half-life; key: `O=C(O)C[C@H](CCCCCCc1ccc2c(n1)NCCC2)c1ccc2c(c1)OCC2` ; value = 348

Noted for `O=C(O)C[C@H](CCCCCCc1ccc2c(n1)NCCC2)c1cnc2ccccc2c1` : its half-life reads 300

Form: compound = `O=C(O)C[C@H](CCCCCCc1ccc2c(n1)NCCC2)c1cncnc1` ; half-life = 384
